Property: GI50; scope: individual compounds
system: OVCAR-8; experiment: NCI tumour cell line growth inhibition, 48 h
The source made the active and inactive calls. Cut-off read from the data, not from the text of the source: active = GI50 up to about 1.1 µM and inactive = higher.
result-type: GI50

O=C1NC(N/N=C/c2ccccc2)=N/C1=C\c1ccco1 : 16.1 µM (inactive)
COc1ccc(N2C(=O)C3c4[nH]c5cc(Cl)ccc5c4C4CCC(C(C)(C)C)CC4C3C2=O)cc1 (stereo unspecified) : > 100 µM (inactive)
CC(=O)Nc1nc(C)c(S(=O)(=O)NC(=O)N2c3ccccc3CCc3ccccc32)s1 : > 100 µM (inactive)
S=C=NCc1ccccc1 [BENZYL ISOTHIOCYANATE] : 2.62 µM (inactive)
NC(CCP(=O)(O)O)C(=O)O (stereo unspecified) : > 100 µM (inactive)
COC(=O)C1CC23CCCN4CCC5(c6ccccc6N(C=O)C15CC2)C43 (stereo unspecified) : > 100 µM (inactive)
NC1CCC2(O)c3ccccc3C2C1 (stereo unspecified) : > 100 µM (inactive)
CC(=O)OC(Cn1cncn1)(Cn1cncn1)c1ccc(Cl)cc1Cl : > 100 µM (inactive)
C/C(Sc1ccccc1)=C1/CCCN(Cc2ccccc2)C1 : 30 µM (inactive)
COc1ccccc1N1CCN(CCCCNC(=O)c2ccc([N+](=O)[O-])o2)CC1 : 10.6 µM (inactive)
Cn1c(-c2ccc(C=O)o2)ccc1-c1ccc(C=O)o1 : 30.4 µM (inactive)

###

test system: M14; experiment: NCI tumour cell line growth inhibition, 48 h
Active and inactive are the calls of the source. Rule as the data show it: active = GI50 up to about 1.1 µM and inactive = higher.
# GI50 per record follows
result-type: GI50

Cc1[nH]c2ccccc2c1-c1n[nH]c(=O)c2ccccc12 : 21 µM (inactive)
CC(=O)N1N=C(c2ccccc2Nc2ccccc2C2=NN(C(C)=O)C(c3ccccc3)O2)OC1c1ccccc1 (stereo unspecified) : 56.1 µM (inactive)
CC1=[N+]([O-])C(C)(C)N(O)C1(C)C : > 100 µM (inactive)
NC1CCC2(O)c3ccccc3C2C1 (stereo unspecified) : > 100 µM (inactive)
O=C(CC(=O)c1cccc2ccccc12)C(=O)Nc1nccs1 : > 100 µM (inactive)
c1cc2c(cc1NC1=NCCO1)CCCC2 : 2.88 µM (inactive)
C=C(C)C(=O)O[C@H]1CC2(CO)O[C@@H]2CC/C(COC(C)=O)=C/C2OC(=O)C(=C)[C@@H]21 (stereo partly specified) : 21 µM (inactive)
COC(=O)C1=C(C(=O)OC)C2C=CC1C1C(Cl)=C(Cl)C21 (stereo unspecified) : > 100 µM (inactive)
Cc1cc(C)c2c(=O)n(CN3CCC(C#N)(c4ccccc4)CC3)sc2n1 : 50.2 µM (inactive)
COc1ccc(/C=C/C(=O)C(C)(C)CN2CCCCC2)cc1 : 18.2 µM (inactive)
COC(=O)C1=C(C(=O)OC)C2=S(SC3=C2CCCC3)S1 (stereo unspecified) : 24.8 µM (inactive)

###

# key: entry, value: GI50
test system: RXF 393; assay: NCI tumour cell line growth inhibition, 48 h
The source made the active and inactive calls. No stated cut-off is given here; in the data, active = GI50 up to about 1.1 µM and inactive = higher.
result-type: GI50

COc1ccc(-c2cc(=O)c3c(OC)c(OC)c(OC)c(OC)c3o2)cc1 [TANGERETIN] : 45.4 µM (inactive)
CCOC(=O)CCC(NC(=O)Cc1ccc(Nc2nc3ccccc3nc2-c2cccs2)cc1)C(=O)OCC (centres undefined) : 12.9 µM (inactive)
Cc1ccc(Nc2nc(C)c(C(/C=C/c3ccc4c(c3)OCO4)=N/Nc3ccc([N+](=O)[O-])cc3[N+](=O)[O-])s2)c([N+](=O)[O-])c1 : 38 µM (inactive)
O=C(c1ccc(Cl)cc1)c1ccc(OCCCCCCCCCCOc2ccc(C(=O)c3ccc(Cl)cc3)cc2)cc1 : > 100 µM (inactive)
